- assay_overview: Pharmacokinetic test in mice
- Assay type: in vivo, ICR mice
- condition_set: male, ICR, po; mouse plasma, i.g. 10 mg/kg; read-out: T½ (converted)
value_type: half-life
Please don't drop the unit; write it after the number.

Quickly give me recorded half-life for CC(C)(COC(N)=O)Nc1nc(N2CC=C(c3ncc(Cl)cn3)CC2)nc2c1[S@+]([O-])CC2 [Compound 51]
3.33 h

----------
- assay_overview: Pharmacokinetic test in mice
- Format: in vivo, ICR mice
- condition_set: male, ICR, iv; mouse plasma, i.v. 2.5 mg/kg; read-out: T½ (converted)
value_type: half-life (h)
Quick reminder: number only, in h, skip the unit.

Quickly give me recorded half-life for "CC(C)(COC(N)=O)Nc1nc(N2CC=C(c3ncc(Cl)cn3)CC2)nc2c1[S@+]([O-])CC2"
2.82

----------
- assay_overview: Pharmacokinetic test in mice
- Type: in vivo, ICR mice
- condition_set: male, ICR, iv; mouse plasma, i.v. 2.5 mg/kg; read-out: Vdss
value_type: Vd
Please don't drop the unit; write it after the number.

Quickly give me recorded Vd for "CC(C)(COC(N)=O)Nc1nc(N2CC=C(c3ncc(Cl)cn3)CC2)nc2c1[S@+]([O-])CC2"
1.29 L/kg

----------
IC50 reference
- target_or_test_system: PDE4B2 (Homo sapiens (Human), UniProt Q07343)
- Sequence (Q07343 other isoform, or with tags, fused parts or gaps): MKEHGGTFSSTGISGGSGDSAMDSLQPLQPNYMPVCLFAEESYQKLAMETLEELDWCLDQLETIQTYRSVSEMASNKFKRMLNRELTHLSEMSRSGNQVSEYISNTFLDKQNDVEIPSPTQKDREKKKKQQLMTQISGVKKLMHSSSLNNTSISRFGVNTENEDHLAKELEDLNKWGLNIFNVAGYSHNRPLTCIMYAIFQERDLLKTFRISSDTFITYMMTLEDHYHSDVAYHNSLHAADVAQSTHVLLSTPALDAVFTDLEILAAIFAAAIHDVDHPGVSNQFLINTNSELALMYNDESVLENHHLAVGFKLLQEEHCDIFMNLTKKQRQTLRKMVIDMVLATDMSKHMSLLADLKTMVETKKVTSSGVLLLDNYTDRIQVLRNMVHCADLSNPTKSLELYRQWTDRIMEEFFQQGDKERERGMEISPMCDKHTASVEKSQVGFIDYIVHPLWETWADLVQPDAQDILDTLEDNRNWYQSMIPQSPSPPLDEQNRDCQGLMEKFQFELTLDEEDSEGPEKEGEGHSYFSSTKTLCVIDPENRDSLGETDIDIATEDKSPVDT
- assay_overview: Effect of compounds on PDE4B2 activity (fluorescence polarization kit)

// known answers, use as guide
CC(C)(COC(N)=O)Nc1nc(N2CC=C(c3ccc4c(c3)C[Si](C)(C)C4)CC2)nc2c1[S@+]([O-])CC2 | 10 to 50 nM
C#Cc1ccc(N2CCN(c3nc4c(c(NC5(CO)CCC5)n3)[S+]([O-])CCC4)CC2)cc1 (stereo not shown) | < 10 nM
COC(=O)NCC1(Nc2nc(N3C[C@H]4CC(c5ncc(Cl)cn5)=C[C@H]4C3)nc3c2[S@+]([O-])CC3)CCC1 | < 10 nM
C#Cc1cnc(C2=CCN(c3nc4c(c(NC5(COC(N)=O)CCC5)n3)[S@+]([O-])CC4)CC2)nc1 | < 10 nM
COC(=O)NCC(C)(C)Nc1nc(N2CC=C(c3ncc(C4CC4)cn3)CC2)nc2c1[S@+]([O-])CC2 | 10 to 50 nM

Quickly give me recorded IC50 for "NC(=O)OCC1(Nc2nc(N3C[C@H]4CN(c5ccc6c(c5)CC6)C[C@H]4C3)nc3c2[S@+]([O-])CC3)CCC1"
< 10 nM

Quickly give me recorded IC50 for "COc1cnc(C2=CCN(c3nc4c(c(NC(C)(C)COC(N)=O)n3)[S@+]([O-])CC4)CC2)nc1"
10 to 50 nM

----------
- target_or_test_system: PDE4B2 (Homo sapiens (Human))
- assay_overview: Effect of compounds on PDE4B2 activity (fluorescence polarization kit)
- condition_set: read-out: PDE4B2 IC50
value_type: IC50

[O-][S@@+]1CCCc2nc(N3CCN(c4ncc(Cl)cn4)CC3)nc(NC3(CO)CCC3)c21 | < 10 nM
CCOc1cnc2c(c1)OC[C@H]1CN(c3nc4c(c(NC(C)(C)CNC(=O)OC)n3)[S@+]([O-])CC4)CCN21 | 10 to 50 nM
C#Cc1ccc(C2=CCN(c3nc4c(c(NC5([C@@H](C)O)CCC5)n3)[S@+]([O-])CC4)CC2)nc1 | < 10 nM
Cc1cnc2c(c1)OC[C@@H]1CN(c3nc4c(c(NC(C)(C)COC(N)=O)n3)[S@+]([O-])CC4)CCN21 | < 10 nM
CC#Cc1cnc2c(c1)OC[C@@H]1CN(c3nc4c(c(NC(C)(C)COC(N)=O)n3)[S@+]([O-])CC4)CCN21 | < 10 nM

Quickly give me recorded IC50 for "O=C1CCCc2nc(N3CC4=C(CN(c5ncc(Cl)cn5)C4)C3)nc(NC3(CO)CCC3)c21"
< 10 nM

Quickly give me recorded IC50 for "C#Cc1cnc(C2=CCN(c3nc4c(c(NC5([C@H](C)O)CCC5)n3)[S@@+]([O-])CC4)CC2)nc1"
10 to 50 nM

----------
IC50 reference
- target_or_test_system: PDE4B2 (Homo sapiens (Human))
- assay_overview: Effect of compounds on PDE4B2 activity (fluorescence polarization kit)

// known answers, use as guide
C#Cc1cnc(N2CCN(c3nc4c(c(NC5(COC(N)=O)CCC5)n3)[S@+]([O-])CC4)CC2)nc1 | < 10 nM
C#Cc1cnc(C2=CCN(c3nc4c(c(NC5(CN/C(C)=N/C#N)CCC5)n3)[S@+]([O-])CC4)CC2)nc1 | < 10 nM

Quickly give me recorded IC50 for "CC#Cc1ccc(C2=CCN(c3nc4c(c(NC5(CNC(=O)OC)CCC5)n3)[S@+]([O-])CC4)CC2)nc1"
< 10 nM

Quickly give me recorded IC50 for "CCOc1cnc(C2=CCN(c3nc4c(c(NC(C)(C)COC(N)=O)n3)[S@+]([O-])CC4)CC2)nc1"
< 10 nM

Quickly give me recorded IC50 for "COC(=O)NCC1(Nc2nc(N3CC=C(c4nc5ccccc5s4)CC3)nc3c2[S@+]([O-])CC3)CCC1"
< 10 nM

Quickly give me recorded IC50 for "NC(=O)OCC1(Nc2nc(N3CCC(c4ncc(Cl)cn4)CC3)nc3c2[S@+]([O-])CC3)CCC1"
50 to 100 nM

Quickly give me recorded IC50 for "C#Cc1cnc(C2=CCN(c3nc4c(c(NC5(COC)CCC5)n3)[S@+]([O-])CC4)CC2)nc1"
< 10 nM

Quickly give me recorded IC50 for "CC(C)(COC(N)=O)Nc1nc(N2CCC=C(c3ncc(C4CC4)cn3)CC2)nc2c1[S@+]([O-])CC2"
10 to 50 nM

Quickly give me recorded IC50 for "CNC(=O)OCC1(Nc2nc(N3CC=C(c4ncc(C5CC5)cn4)CC3)nc3c2[S@+]([O-])CC3)CCC1"
10 to 50 nM

Quickly give me recorded IC50 for "CC(C)(COC(N)=O)Nc1nc(N2CC=C(c3ncc4occc4n3)CC2)nc2c1[S@+]([O-])CC2"
< 10 nM

Quickly give me recorded IC50 for "NCC1(Nc2nc(N3CC=C(c4nc5ccccc5s4)CC3)nc3c2[S@+]([O-])CC3)CCC1"
10 to 50 nM

Quickly give me recorded IC50 for "NC(=O)OCC1(Nc2nc(N3CC=C(c4ncc(Cl)cn4)CC3)nc3c2[S@+]([O-])CC3)CCC1"
< 10 nM

Quickly give me recorded IC50 for "NC(=O)OCC1(Nc2nc(N3CC=C(c4ncc(Cl)cn4)CC3)nc3c2[S@+]([O-])CC3)CCCC1"
< 10 nM

Quickly give me recorded IC50 for "[O-][S@+]1CCc2nc(N3CC=C(c4ncc(Cl)cn4)CC3)nc(NC3(CO)CCCC3)c21"
< 10 nM

Quickly give me recorded IC50 for "CC(C)c1cnc(C2=CCN(c3nc4c(c(NC(C)(C)COC(N)=O)n3)[S@+]([O-])CC4)CC2)nc1"
< 10 nM

----------
- assay_overview: Pharmacokinetic test in beagle dogs
- Format: in vivo
- condition_set: male, iv; beagle dog plasma, i.v. 1 mg/kg; read-out: T½ (converted)
value_type: half-life (h)
Quick reminder: number only, in h, skip the unit.

Quickly give me recorded half-life for "CC(C)(COC(N)=O)Nc1nc(N2CC=C(c3ncc(Cl)cn3)CC2)nc2c1[S@+]([O-])CC2"
12.8

----------
- target_or_test_system: UniProt:Q07343
- assay_overview: Effect of compounds on PDE4B2 activity (fluorescence polarization kit)
- condition_set: read-out: PDE4B2 IC50
value_type: IC50

[O-][S@+]1CCCc2nc(N3C[C@H]4CN(c5ccc(Cl)cc5)C[C@H]4C3)nc(NC3(CO)CCC3)c21 | < 10 nM

Quickly give me recorded IC50 for "COC(=O)NCC(C)(C)Nc1nc(N2C[C@@H]3CC(c4ncc5c(n4)CC5)=C[C@@H]3C2)nc2c1[S@+]([O-])CC2"
< 10 nM

Quickly give me recorded IC50 for "CC#Cc1cnc2c(c1)OC[C@@H]1CN(c3nc4c(c(NC(C)(C)CNC(=O)OC)n3)[S@+]([O-])CC4)CCN21"
10 to 50 nM

Quickly give me recorded IC50 for "COC(=O)NCC(C)(C)Nc1nc(N2C[C@H]3CC(c4ncc5c(n4)CC5)=C[C@H]3C2)nc2c1[S@+]([O-])CC2"
10 to 50 nM

Quickly give me recorded IC50 for "COC(=O)NCC(C)(C)Nc1nc(N2CC=C(c3ncc(Cl)cn3)CC2)nc2c1[S@+]([O-])CC2"
< 10 nM

Quickly give me recorded IC50 for "C#Cc1cnc(C2=CCN(c3nc4c(c(NC5([C@@H](C)O)CCC5)n3)[S@@+]([O-])CC4)CC2)nc1"
< 10 nM

Quickly give me recorded IC50 for "C#Cc1ccc(C2=CCN(c3nc4c(c(NC5([C@@H](C)O)CCC5)n3)[S@@+]([O-])CC4)CC2)nc1"
< 10 nM

Quickly give me recorded IC50 for "CN1C[C@@H](Nc2nc(N3C[C@H]4CN(c5ccc6c(c5)CC6)C[C@H]4C3)nc3c2[S@@+]([O-])CC3)CCC1=O"
< 10 nM

Quickly give me recorded IC50 for "C#Cc1cnc(C2=CCN(c3nc4c(c(NC5([C@H](C)O)CCC5)n3)[S@+]([O-])CC4)CC2)nc1"
< 10 nM

Quickly give me recorded IC50 for [O-][S+]1CCCc2nc(N3CCC(c4ncc(Cl)cn4)CC3)nc(NC3(CO)CCC3)c21 (stereo not shown)
10 to 50 nM

Quickly give me recorded IC50 for "CC#Cc1cnc2c(c1)OC[C@H]1CN(c3nc4c(c(NC(C)(C)CNC(=O)OC)n3)[S@+]([O-])CC4)CCN21"
10 to 50 nM

Quickly give me recorded IC50 for "COC(=O)NCC(C)(C)Nc1nc(N2CCN3c4ncc(C)cc4OC[C@@H]3C2)nc2c1[S@+]([O-])CC2"
10 to 50 nM

Quickly give me recorded IC50 for "CC(C)(COC(N)=O)Nc1nc(N2CC=C(c3ncc(N4CC[Si](C)(C)CC4)cn3)CC2)nc2c1[S@+]([O-])CC2"
10 to 50 nM
